System: rodent lifetime carcinogenesis bioassay, tumor incidence TD50
Assay: carcinogenic potency in animals, long-term in vivo studies, CPDB compilation (AID 1745844)
Conditions: mouse; strain Charles River CD1; females; in drinking water; site: liver; lesion: all vascular tumors; dosed 52 weeks; study length 52 weeks
Value type: TD50

Note TD50 for the compound shown: CN(C)N
26 mg/kg/day

###

Test system: rodent lifetime carcinogenesis bioassay, tumor incidence TD50
Assay: carcinogenic potency in animals, long-term in vivo studies, CPDB compilation (AID 1745844)
Conditions: rat; strain Fischer 344; males; inhaled; site: any site (literature study); lesion: several types; types named in the paper; dosed 102 weeks; study length 104 weeks
Value type: TD50 (mg/kg/day)
Give bare numbers, in mg/kg/day.

# return TD50 for ClCCl , test system: rodent lifetime carcinogenesis bioassay, tumor incidence TD50
539

###

System: rodent lifetime carcinogenesis bioassay, tumor incidence TD50
Assay: carcinogenic potency in animals, long-term in vivo studies, CPDB compilation (AID 1745844)
Details: mouse; strain B6C3F1; females; inhaled; site: liver + lung; lesion: hepatocellular adenoma + hepatocellular carcinoma + alveolar/bronchiolar adenoma + alveolar/bronchiolar carcinoma; dosed 102 weeks; study length 104 weeks
Value type: TD50 (mg/kg/day)
Numbers only, in mg/kg/day.

Note TD50 for the molecule shown: ClCCl
817

###

System: rodent lifetime carcinogenesis bioassay, tumor incidence TD50
Assay: carcinogenic potency in animals, long-term in vivo studies, CPDB compilation (AID 1745844)
Conditions: rat; strain Fischer 344; males; by gavage; site: pancreas; lesion: acinar-cell adenoma; dosed 106 weeks; study length 108 weeks
Value type: TD50

Note TD50 for the molecule shown: Cc1ccc(N=C=O)cc1N=C=O
51.6 mg/kg/day

###

System: rodent lifetime carcinogenesis bioassay, tumor incidence TD50
Experiment: carcinogenic potency in animals, long-term in vivo studies, CPDB compilation (AID 1745844)
Conditions: rat; strain Fischer 344; females; in feed; site: liver + mammary gland; lesion: hepatocellular carcinoma + neoplastic nodule + adenoma + carcinoma; dosed 93 weeks; study length 103 weeks
Value type: TD50 (mg/kg/day)
Give bare numbers, in mg/kg/day.

Note TD50 for the molecule shown: Cc1ccc(N)cc1N
1.43

###

Test system: rodent lifetime carcinogenesis bioassay, tumor incidence TD50
Assay: carcinogenic potency in animals, long-term in vivo studies, CPDB compilation (AID 1745844)
Conditions: mouse; strain Charles River CD1; females; in feed; site: duodenum; lesion: adenoma; dosed 112 weeks; study length 112 weeks
Value type: TD50

Note TD50 for the molecule shown: O=C1c2ccccc2C(=O)N1SC(Cl)(Cl)Cl
7280 mg/kg/day

###

Test system: rodent lifetime carcinogenesis bioassay, tumor incidence TD50
Test: carcinogenic potency in animals, long-term in vivo studies, CPDB compilation (AID 1745844)
Conditions: rat; strain Fischer 344; males; in feed; site: skin; lesion: keratoacanthoma; dosed 103 weeks; study length 105 weeks
Value type: TD50 (mg/kg/day)
Numbers only, in mg/kg/day.

Note TD50 for the molecule shown: CCN=c1cc2oc3cc(NCC)c(C)cc3c(-c3ccccc3C(=O)OCC)c-2cc1C
34.5

###

System: rodent lifetime carcinogenesis bioassay, tumor incidence TD50
Assay: carcinogenic potency in animals, long-term in vivo studies, CPDB compilation (AID 1745844)
Settings: mouse; strain B6C3F1; males; inhaled; site: all sites; lesion: malignant lymphoma, lymphocytic type; dosed 40 weeks; study length 104 weeks
Value type: TD50

Note TD50 for the compound shown: C=CC=C
142 mg/kg/day

###

System: rodent lifetime carcinogenesis bioassay, tumor incidence TD50
Experiment: carcinogenic potency in animals, long-term in vivo studies, CPDB compilation (AID 1745844)
Conditions: rat; strain Wistar; both sexes; in feed; site: cecum; lesion: malignant lymphoma; dosed 95 weeks; study length 95 weeks
Value type: TD50

Note TD50 for the compound shown: CCN(Cc1cccc(S(=O)(=O)O)c1)c1ccc(C(=C2C=CC(=[N+](CC)Cc3cccc(S(=O)(=O)[O-])c3)C=C2)c2ccc(S(=O)(=O)O)cc2)cc1
5640 mg/kg/day

###

Test system: rodent lifetime carcinogenesis bioassay, tumor incidence TD50
Assay: carcinogenic potency in animals, long-term in vivo studies, CPDB compilation (AID 1745844)
Details: rat; strain Sprague-Dawley; females; in feed; site: mammary gland; lesion: adenocarcinoma; dosed 46 weeks; study length 57 weeks
Value type: TD50 (mg/kg/day)
Numbers only, in mg/kg/day.

Note TD50 for the compound shown: NNc1nc(-c2ccc([N+](=O)[O-])o2)cs1
7.79

###

System: rodent lifetime carcinogenesis bioassay, tumor incidence TD50
Test: carcinogenic potency in animals, long-term in vivo studies, CPDB compilation (AID 1745844)
Details: mouse; strain B6AKF1; females; oral dosing; site: liver; lesion: angioma; dosed 81 weeks; study length 81 weeks
Value type: TD50 (mg/kg/day)
One number for each entry, in mg/kg/day.

Note TD50 for the molecule shown: CCCc1ccc2c(c1)OCO2
1400

###

Test system: rodent lifetime carcinogenesis bioassay, tumor incidence TD50
Experiment: carcinogenic potency in animals, long-term in vivo studies, CPDB compilation (AID 1745844)
Conditions: mouse; strain B6C3F1; females; inhaled; site: all sites; lesion: hemangioma; dosed 95 weeks; study length 95 weeks
Value type: TD50 (mg/kg/day)
Give bare numbers, in mg/kg/day.

Note TD50 for the compound shown: FC(F)=C(F)F
835

###

For each entry below, report its TD50 value.
System: rodent lifetime carcinogenesis bioassay, tumor incidence TD50
Assay: carcinogenic potency in animals, long-term in vivo studies, CPDB compilation (AID 1745844)
Conditions: mouse; strain B6C3F1; females; in feed; site: liver; lesion: hepatocellular adenoma + hepatocellular carcinoma + neoplastic nodule; dosed 103 weeks; study length 107 weeks
Give bare numbers, in mg/kg/day.

The examples below pair each entry with its known result.
Clc1nc(Cl)nc(Nc2ccccc2Cl)n1 ... 2550
Nc1ccccc1 ... 8850

Let's switch to this molecule now.
Note TD50 for the molecule shown: CC(C)(c1ccc(O)cc1)c1ccc(O)cc1
13100

###

Test system: rodent lifetime carcinogenesis bioassay, tumor incidence TD50
Experiment: carcinogenic potency in animals, long-term in vivo studies, CPDB compilation (AID 1745844)
Settings: mouse; strain C3HeB/FeJ; males; in feed; site: liver; lesion: several types; types named in the paper; dosed 104 weeks; study length 104 weeks
Calls of active or inactive are those of the source. No rule for the calls is given here.
For each entry below, report its TD50 value.

For each of the items listed, what is its TD50?
1. CCN(Cc1cccc(S(=O)(=O)O)c1)c1ccc(C(=C2C=CC(=[N+](CC)Cc3cccc(S(=O)(=O)[O-])c3)C=C2)c2ccccc2)cc1
2. CCN(Cc1cccc(S(=O)(=O)O)c1)c1ccc(C(=C2C=CC(=[N+](CC)Cc3cccc(S(=O)(=O)[O-])c3)C=C2)c2ccc(S(=O)(=O)O)cc2)cc1

["26100 mg/kg/day (inactive)", "18900 mg/kg/day"]

###

System: rodent lifetime carcinogenesis bioassay, tumor incidence TD50
Assay: carcinogenic potency in animals, long-term in vivo studies, CPDB compilation (AID 1745844)
Details: mouse; strain B6C3F1; males; inhaled; site: liver; lesion: hepatocellular adenoma + hepatoblastoma + hepatocellular carcinoma; dosed 130 weeks; study length 130 weeks
Value type: TD50 (mg/kg/day)
Numbers only, in mg/kg/day.

# return TD50 for O=[O+][O-] , test system: rodent lifetime carcinogenesis bioassay, tumor incidence TD50
2.02

###

Tested on: rodent lifetime carcinogenesis bioassay, tumor incidence TD50
Assay: carcinogenic potency in animals, long-term in vivo studies, CPDB compilation (AID 1745844)
Details: mouse; strain C3H (MTV+); females; in drinking water; site: lung; lesion: adenoma; dosed 92 weeks; study length 92 weeks
Value type: TD50

Note TD50 for the compound shown: O=S(=O)(O)O
109 mg/kg/day

###

Tested on: rodent lifetime carcinogenesis bioassay, tumor incidence TD50
Assay: carcinogenic potency in animals, long-term in vivo studies, CPDB compilation (AID 1745844)
Details: mouse; strain ICR/Jcl; males; in feed; site: forestomach; lesion: several types; types named in the paper; dosed 52 weeks; study length 65 weeks
Value type: TD50
Kindly report the value followed by its unit.

Note TD50 for the molecule shown: CCCCN(CCCC)N=O
0.686 mg/kg/day

###

Test system: rodent lifetime carcinogenesis bioassay, tumor incidence TD50
Assay: carcinogenic potency in animals, long-term in vivo studies, CPDB compilation (AID 1745844)
Details: rat; strain Charles River CD (Sprague-Dawley); males; in feed; site: liver; lesion: hepatocellular adenoma; dosed 78 weeks; study length 78 weeks
Calls of active or inactive are those of the source. How the calls were made is not given here.
Value type: TD50

# return TD50 for C=CCOc1ccccc1OCC(O)CNC(C)C (stereo unspecified) , test system: rodent lifetime carcinogenesis bioassay, tumor incidence TD50
1680 mg/kg/day (inactive)

###

Test system: rodent lifetime carcinogenesis bioassay, tumor incidence TD50
Test: carcinogenic potency in animals, long-term in vivo studies, CPDB compilation (AID 1745844)
Details: mouse; strain Swiss albino; males; in drinking water; site: lung; lesion: several types; types named in the paper; dosed 52 weeks; study length 52 weeks
Value type: TD50

Note TD50 for the compound shown: CNNC
1.81 mg/kg/day
